Just for reference, paper PMC4105859 is where these values come from.

Biological target: T1, ANKS6-SAM wt (human, UniProt Q68DC2 771-840)
T1 chain: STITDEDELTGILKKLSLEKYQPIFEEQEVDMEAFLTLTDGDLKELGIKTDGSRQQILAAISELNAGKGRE
Assay: SPR; value printed in panel; legend gives 249 nM
MEASURED PARAMETER: Kd (µM)
# value in µM; strip the unit string

Enquiry: So what does the record say about Kd for ANKS3-SAM I36E (domain or fragment) SRAPYSGPQDLAALLEQIGCLKYLQVFEEQDVDLREFLTLTESDLKEIGITLFGPKRKMTSAIARWHSSAR ?
Return: 0.27
